Molecular target: human HIF-PHD2 (Homo sapiens)
Construct: FLAG-tagged full length PHD2 expressed in and purified from baculovirus-infected Sf9 cells; FLAG; made in house; host or cells: baculovirus-infected Sf9 cells
Experiment: HIF-PHD2 inhibition: hydroxylation of HIF-1α peptide, time resolved fluorescence
Assay type: biochemical
Conditions: FLAG-tagged full length PHD2; 0.2 μM 2-oxoglutarate, 0.5 μM HIF-1α peptide
Where a name gives a salt, the structure may show the parent alone.
Below is a list of entries, each paired with its recorded pIC50 value.
Just so you know, pIC50 here is -log10 of the concentration in molar units; reply with that number alone.

>>> experimentalresult("COc1ccc(C(NC(=O)c2cnc(C(=O)NCCC(=O)O)nc2O)c2ccccc2)cc1 (stereo not shown) [Example 38]")
9.05

## Input Determine from records and report pIC50 for CC(CNC(=O)c1ncc(C(=O)NC(C)(C)c2ccc(-c3cc[nH]n3)cc2)c(O)n1)C(=O)O (single isomer, unassigned) [Example 27, formate]
## Output 8.24

## Input Determine from records and report pIC50 for CC(CNC(=O)c1ncc(C(=O)NC(C)(C)c2ccc(-c3cccc4cnccc34)cc2)c(O)n1)C(=O)O (single isomer, unassigned) [Example 21, formate]
## Output 8.32

## Input Determine from records and report pIC50 for CC(NC(=O)c1cnc(C(=O)NCCC(=O)O)nc1O)c1ccc(Oc2ccccc2)cc1 (stereo not shown) [Example 46]
## Output 9.00

* * *

Target: human HIF-PHD2 (Homo sapiens, UniProt Q9GZT9)
Sequence (Q9GZT9 whole entry): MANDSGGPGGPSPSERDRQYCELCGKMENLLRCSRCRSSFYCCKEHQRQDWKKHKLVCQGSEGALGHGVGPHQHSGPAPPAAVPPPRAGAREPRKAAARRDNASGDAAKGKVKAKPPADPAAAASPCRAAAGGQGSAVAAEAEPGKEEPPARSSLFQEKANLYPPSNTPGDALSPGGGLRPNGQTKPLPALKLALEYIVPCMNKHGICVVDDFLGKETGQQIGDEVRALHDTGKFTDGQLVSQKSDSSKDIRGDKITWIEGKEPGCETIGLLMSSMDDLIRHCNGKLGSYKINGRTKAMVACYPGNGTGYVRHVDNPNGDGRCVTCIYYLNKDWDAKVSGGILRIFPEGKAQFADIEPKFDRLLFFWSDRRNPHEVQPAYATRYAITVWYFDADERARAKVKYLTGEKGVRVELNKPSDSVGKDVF
We label by threshold. Values of IC50 strictly beneath 2 nM are true. Values of 2 nM and up are false.

Check out these entries, answers already filled in.
>>> category("O=C(NC[C@H](O)C(=O)O)c1ncc(C(=O)NC(c2ccccc2)c2ccccc2)c(O)n1")
"true"
>>> category("N#Cc1ccc(C(NC(=O)c2cnc(C(=O)NC[C@@H](O)C(=O)O)nc2O)c2ccccc2)cc1 (single isomer, unassigned)")
"false"
>>> category("CC(C)(NC(=O)c1cnc(C(=O)NC[C@@H](O)C(=O)O)nc1O)c1ccc(C(F)(F)F)cc1")
"true"

## Input Could you please tell me whether IC50 recorded for CNc1ccc(C(NC(=O)c2cnc(C(=O)NCCC(=O)O)nc2O)c2ccc(OC)cc2)cn1 (single isomer, unassigned) is less than 2 nM?
## Output true

## Input Could you please tell me whether IC50 recorded for O=C(O)CCNC(=O)c1ncc(C(=O)NC(c2ccc(Cl)cc2)c2ccc(C(F)(F)F)cc2)c(O)n1 (stereo not drawn) is less than 2 nM?
## Output true

## Input Could you please tell me whether IC50 recorded for COc1ccc([C@H](NC(=O)c2cnc(C(=O)NCCC(=O)O)nc2O)c2ccccc2)cc1 is less than 2 nM?
## Output false

* * *

Target: human HIF-PHD2 (Homo sapiens, UniProt Q9GZT9)
Structures can show the parent of a compound that is named as a salt.
We label by threshold. Values of IC50 strictly beneath 10 nM are criterion met. Values of 10 nM and up are criterion not met.

>>> category("CC(CNC(=O)c1ncc(C(=O)NC2(c3ccc(-c4ccc(F)cc4)cc3)CC2)c(O)n1)C(=O)O (single isomer, unassigned) [Example 32]")
"criterion not met"

## Input Could you please tell me whether IC50 recorded for COc1ccc(C(NC(=O)c2cnc(C(=O)NCC(C)C(=O)O)nc2O)c2ccc(OC)cc2)cc1 (single isomer, unassigned) [Example 18] is less than 10 nM?
## Output criterion not met

## Input Could you please tell me whether IC50 recorded for COc1ccc([C@@H](NC(=O)c2cnc(C(=O)NCCC(=O)O)nc2O)c2ccc(Cl)cc2)cc1 [Example 35] is less than 10 nM?
## Output criterion met

## Input Could you please tell me whether IC50 recorded for COc1ccc([C@H](NC(=O)c2cnc(C(=O)NC[C@@H](O)C(=O)O)nc2O)c2ccccc2)cc1 [Example 12] is less than 10 nM?
## Output criterion met

## Input Could you please tell me whether IC50 recorded for Cc1cc(C#N)ccc1-c1ccc(C(C)(C)NC(=O)c2cnc(C(=O)NCC(C)C(=O)O)nc2O)cc1 (single isomer, unassigned) [Example 23] is less than 10 nM?
## Output criterion not met

## Input Could you please tell me whether IC50 recorded for CC(CNC(=O)c1ncc(C(=O)NC(C)(C)c2ccc(-c3cccnc3)cc2)c(O)n1)C(=O)O (single isomer, unassigned) [Example 22, formate] is less than 10 nM?
## Output criterion met

## Input Could you please tell me whether IC50 recorded for CC(O)(CNC(=O)c1ncc(C(=O)NC(c2ccccc2)c2ccccc2)c(O)n1)C(=O)O (stereo not drawn) [Example 3] is less than 10 nM?
## Output criterion met

## Input Could you please tell me whether IC50 recorded for COc1ccc([C@@H](NC(=O)c2cnc(C(=O)NCCC(=O)O)nc2O)c2ccccc2)cc1 [Example 36] is less than 10 nM?
## Output criterion met

src = patent US20170247336A1
